- System name: BRD4 (BDII_E352-M457) (Homo sapiens, UniProt O60885)
- Construct: protocol; made in house
- Method: TR-FRET bromodomain binding assay, second bromodomain of BRD4
- Condition info: TR-FRET assay protocol G (compound 0.92 μM-15 pM); 30 nM probe
Collected Ki values appear next to each entry.
Could you kindly put the unit after your number?

Would you please look over these solved cases?
# Molecule, System name, Ki
rows = [
    ("Cn1cc2c3c(c[nH]c3c1=O)C(c1cccc(-c3ccccn3)c1)N(c1ccc(F)cc1F)c1ccc(CS(C)(=O)=O)cc1-2 (racemic)", "BRD4 (BDII_E352-M457) (Homo sapiens, UniProt O60885)", "30 nM"),
    ("Cn1cc2c3c(c[nH]c3c1=O)CN(C(=O)c1cccc3ccccc13)c1ccc(CS(C)(=O)=O)cc1-2", "BRD4 (BDII_E352-M457) (Homo sapiens, UniProt O60885)", "25.5 nM"),
    ("Cn1cc2c3c(c[nH]c3c1=O)C(CNC(=O)CN)N(c1ccc(F)cc1F)c1ccc(CS(C)(=O)=O)cc1-2 (centres unmarked)", "BRD4 (BDII_E352-M457) (Homo sapiens, UniProt O60885)", "2.33 nM"),
]

[ask] Provide one value: measured Ki of COC(=O)CCC1c2c[nH]c3c(=O)n(C)cc(c23)-c2cc(CS(C)(=O)=O)ccc2N1c1ccc(F)cc1F (centres unmarked) [Example 82]
[reply] 1.12 nM

[ask] Provide one value: measured Ki of Cn1cc2c3c(c[nH]c3c1=O)C(C(=O)NCCO)N(c1ccc(F)cc1F)c1ccc(CS(C)(=O)=O)cc1-2 (centres unmarked)
[reply] 60.4 nM

[ask] Provide one value: measured Ki of CCCCNC(=O)C1c2c[nH]c3c(=O)n(C)cc(c23)-c2cc(CS(C)(=O)=O)ccc2N1c1ccc(F)cc1F (centres unmarked)
[reply] 23.9 nM

[ask] Provide one value: measured Ki of `Cn1cc2c3c(c[nH]c3c1=O)CN(C(=O)CC(C)(C)C)c1ccc(CS(C)(=O)=O)cc1-2`
[reply] 3.79 nM

[ask] Provide one value: measured Ki of Cn1cc2c3c(c[nH]c3c1=O)C(CCC(=O)N1CCN(C(=O)OC(C)(C)C)CC1)N(c1ccc(F)cc1F)c1ccc(CS(C)(=O)=O)cc1-2 (centres unmarked)
[reply] 2.36 nM

[ask] Provide one value: measured Ki of Cn1cc2c3c(c[nH]c3c1=O)CN(C1CCCOC1)c1ccc(CS(C)(=O)=O)cc1-2 (racemic)
[reply] 2 nM

[ask] Provide one value: measured Ki of Cn1cc2c3c(c[nH]c3c1=O)C(CN1Cc3ccccc3C1=O)N(c1ccc(F)cc1F)c1ccc(CS(C)(=O)=O)cc1-2 (centres unmarked)
[reply] 2.61 nM

[ask] Provide one value: measured Ki of `CN1CCN(C(=O)c2[nH]c3c(=O)n(C)cc4c3c2CN(c2ccc(Cl)cc2)c2ccc(CS(C)(=O)=O)cc2-4)CC1`
[reply] 33.1 nM

[ask] Provide one value: measured Ki of Cn1cc2c3c(c[nH]c3c1=O)C(CO)N(c1ccc(F)cc1F)c1ccc(CS(C)(=O)=O)cc1-2 (centres unmarked)
[reply] 2.05 nM

[ask] Provide one value: measured Ki of `Cn1cc2c3c(c(C(N)=O)[nH]c3c1=O)CN(c1ccc(Cl)cc1)c1ccc(CS(C)(=O)=O)cc1-2`
[reply] 0.617 nM

[ask] Provide one value: measured Ki of Cn1cc2c3c(c[nH]c3c1=O)C(c1ccc(C#N)cc1)N(c1ccc(F)cc1F)c1ccc(CS(C)(=O)=O)cc1-2 (racemic)
[reply] 6.51 nM
